FYI, the data here is from patent US11111251B2.

Molecular target: human mAChR M1 (Homo sapiens)
Test: mAChR M1 cell-based functional assay: calcium mobilization, positive allosteric modulator mode (increase in EC20 acetylcholine response)
Conditions: Table 2; human M1; read-out: Human M1 EC50
VALUE_KIND: EC50 (nM)

In [3]: df
Out[3]:
                                   compound  endpoint_result
0  Cn1cc(-c2ccc(Cc3cc(C(=O)N[C@@H]4CCCC[C@H]4O)nc4ccsc34)cc2)nn1             12.7
1  Cc1ccc(Cc2cc(C(=O)N[C@@H]3CCCC[C@H]3O)nc3c(C)csc23)cn1              233
2  Cn1ccc2nc(C(=O)N[C@@H]3CCOC3)cc(Cc3ccc(-c4cscn4)cc3)c21             1870
3  Cc1csc2c(Cc3ccc(-n4cccn4)cc3)cc(C(=O)N(C)C3CCOCC3)nc12             6760
4  O=C(N[C@@H]1CCCOC1)c1cc(Cc2ccc(-c3cscn3)cc2)c2sccc2n1              858
5  Cn1cc(-c2cc(F)c(Cc3cc(C(=O)N[C@H]4CCCC[C@@H]4O)nc4ccsc34)c(F)c2)cn1             2640

A. Cn1ccc(-c2ccc(Cc3cc(C(=O)NC4CC5(COC5)C4)nc4ccsc34)cn2)n1
B. Cc1nc(-c2ccc(Cc3cc(C(=O)N[C@@H]4CCOC[C@H]4O)nc4ccsc34)cc2)co1
Just tell me: smaller EC50 value, A or B ? Answer by stating the label of the chosen item.
B
(B: 16.8 nM, A: 143 nM)

1. COCCNC(=O)c1cc(Cc2ccc(-c3cncs3)cc2)c2sccc2n1
2. Cn1ccc2nc(C(=O)NC3CCOCC3)cc(Cc3ccc(-n4cccn4)cc3)c21
// compare measured EC50, left 1 , right 2 , return larger Please respond with the label that marks your chosen entry.
1
(1: 6980 nM, 2: 136 nM)

A. CC1(NC(=O)c2cc(Cc3ccc(-n4cccn4)cc3)c3sccc3n2)COC1
B. O=C(NCC1CCO1)c1cc(Cc2ccc(-c3nccs3)cc2)c2sccc2n1 (centres unmarked)
C. Cc1ccc(Cc2cc(C(=O)NC3C4CC5C[C@H]3CC(O)(C5)C4)nc3c(C)csc23)cn1 (some centres unmarked)
Order the items by recorded EC50; the first position goes to the largest value. Sort and list the labels as requested.
A, C, B

---

Molecular target: human mAChR M1 (Homo sapiens, UniProt P11229)
Sequence (P11229 whole entry): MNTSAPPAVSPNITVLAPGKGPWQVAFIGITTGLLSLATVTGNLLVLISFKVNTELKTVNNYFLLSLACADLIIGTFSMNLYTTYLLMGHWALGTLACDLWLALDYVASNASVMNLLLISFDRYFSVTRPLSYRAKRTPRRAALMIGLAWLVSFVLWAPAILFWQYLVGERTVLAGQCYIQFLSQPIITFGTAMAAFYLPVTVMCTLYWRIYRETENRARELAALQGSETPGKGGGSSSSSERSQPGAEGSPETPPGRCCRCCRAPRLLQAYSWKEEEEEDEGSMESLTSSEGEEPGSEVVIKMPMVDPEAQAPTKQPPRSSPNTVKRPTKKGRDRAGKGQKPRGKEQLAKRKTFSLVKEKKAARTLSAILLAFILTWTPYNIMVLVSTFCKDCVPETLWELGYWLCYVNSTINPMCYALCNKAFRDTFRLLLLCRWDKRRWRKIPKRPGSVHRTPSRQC
Test: mAChR M1 cell-based functional assay: calcium mobilization, positive allosteric modulator mode (increase in EC20 acetylcholine response)
Conditions: Table 2; human M1; read-out: Human M1 EC50
pEC50: −log10 of the molar value.
VALUE_KIND: pEC50

Please review the entries below; each comes with its answer.
>>> df
                                   molecule  endpoint_result
0  Cn1ccc(-c2ccc(Cc3cc(C(=O)NC4CCOCC4(C)C)nc4ccn(C)c34)cc2)n1 (centres unmarked)             6.70
1  CC1COCCC1NC(=O)c1cc(Cc2ccc(-n3cccn3)cc2)c2sccc2n1 (centres unmarked)             6.58
2  O=C(N[C@H]1CCOC1)c1cc(Cc2ccc(-c3nccs3)cc2)c2sccc2n1             5.64

a. O=C(NCc1cc[nH]n1)c1cc(Cc2ccc(-n3cccn3)cc2)c2sccc2n1
b. COCCNC(=O)c1cc(Cc2ccc(-c3cnn(C)c3)nc2)c2sccc2n1
c. Cc1nc(-c2ccc(Cc3cc(C(=O)NC4CCCN(C)C4)nc4ccsc34)cc2)co1 (centres unmarked)
Please list these molecules in decreasing order of pEC50. # respond with the labels, arranged in the requested order
b, a, c

I. Cn1ccc2nc(C(=O)N[C@H]3CCOC[C@@H]3O)cc(Cc3ccc(-c4cscn4)cc3)c21
II. Cc1nn(C)cc1-c1ccc(Cc2cc(C(=O)N[C@H]3CCOC[C@@H]3O)nc3ccsc23)cc1
Hi team, can someone confirm which has the larger pEC50: I or II ? Thanks. Lab log: write the label of the selected item as the result.
I
